- methodDescription: qHTS assay to identify small molecule antagonists of the estrogen receptor alpha (ER-alpha) signaling pathway using the BG1 cell line - cell viability counter screen (AID 743081);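 note: compound given together with 17beta-estradiol as the ER stimulus; nearly all actives have a fitted effect of over 45% in size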
- conditionContext: BG1Luc4E2 viability, CellTiter-Fluor, 22 h; series mostly up to 70.3 µM
Results filed as inconclusive are left out. Calls of active or inactive are those of the source. Calls come from the whole dose curve; as a rule, active = well fitted cell-killing curve with a large enough effect in the repeat runs; inconclusive = weak or mixed curves, or effect the other way; inactive = flat fitted curve, though single readings scatter.
API: response.call in t (active), f (inactive)

> print(dat)
          compound  classassignment
1         CNC(=S)S                f
2  CCOS(=O)(=O)OCC                f

Query: Which outcome was assigned to CCCCCCCCCc1ccc(O)cc1 in this test?
Response: f

Query: What about CN(C)P(=O)(N(C)C)N(C)C ?
Response: f

Query: What about NC(=O)CN1CCCC1=O ?
Response: f

Query: What about CC(C)(c1ccc(OCC2CO2)cc1)c1ccc(OCC2CO2)cc1 (centres undefined) ?
Response: f

Query: What about N#Cc1nn(-c2c(Cl)cc(C(F)(F)F)cc2Cl)c(N)c1S(=O)C(F)(F)F (centres undefined) ?
Response: f

Query: What about ClCc1ccccn1 ?
Response: f

Query: What about Clc1ccccc1-c1nnc(-c2ccccc2Cl)nn1 ?
Response: f

Query: What about CCOP(=S)(OCC)SCn1c(=O)oc2cc(Cl)ccc21 ?
Response: f

Query: What about N#Cc1cccnc1 ?
Response: f

Query: What about CCCCCCCCCCCCCl ?
Response: f

Query: What about CC(C)COC(=O)c1ccccc1C(=O)OCC(C)C ?
Response: f

Query: What about CC[n+]1c(-c2ccccc2)c2cc(N)ccc2c2ccc(N)cc21 ?
Response: t
